In this section, each of the sequences is paired with its reported ETS1 binding intensity.
Target: ETS1 (UniProt P14921)
Sequence: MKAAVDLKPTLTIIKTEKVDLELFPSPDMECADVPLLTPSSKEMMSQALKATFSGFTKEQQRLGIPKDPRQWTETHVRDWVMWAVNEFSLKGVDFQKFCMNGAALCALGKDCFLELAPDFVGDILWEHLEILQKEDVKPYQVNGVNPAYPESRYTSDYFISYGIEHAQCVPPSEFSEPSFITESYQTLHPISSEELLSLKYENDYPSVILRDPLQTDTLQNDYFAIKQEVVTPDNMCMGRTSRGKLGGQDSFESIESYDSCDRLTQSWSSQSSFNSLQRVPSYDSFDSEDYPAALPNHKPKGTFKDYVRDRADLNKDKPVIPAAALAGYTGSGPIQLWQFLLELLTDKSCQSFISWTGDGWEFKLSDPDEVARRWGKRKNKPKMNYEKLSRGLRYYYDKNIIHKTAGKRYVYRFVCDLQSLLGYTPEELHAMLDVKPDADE
Test: ETS1 binding intensity (PBM fluorescence), ETS1 alone (arbitrary fluorescence units); higher = stronger binding
Conditions: ETS1 concentration 1 nM; RUNX1 concentration 0 nM

# sequence string, ETS1 binding intensity
records = [
    ("CCAGCCCAGGAAACAAGGAACCCCAAAGCCACAGGA", 392),
    ("AAAGCAAAGTCAAGAGGATGTGGTGACCAATTCTGC", 1320),
    ("TCACCCTCTCACTTCCTGCGGGTCCCAGGCTCAGGC", 896),
    ("CAGTTCCAGGAAGCAGCCCCAAGCTTGTGGCCCTGA", 526),
    ("AGACAGGAGTTCAGGAAGCTGCGGTCTAGATTATGT", 754),
    ("AGATTAGATGCAGGATGTGGTATACAAAGGCACGTT", 2530),
    ("GAAGCGGAAGTCGCTGAGGGGTGGTGAAGCGGTTGG", 1930),
    ("GCTGCCGGAAAAGGCGCCGAGGTAACCGCCTCACTT", 479),
    ("ACCCTGAAATTACCCGGATGTGGTCCCCGCGCGCGC", 6470),
    ("AGAGTCTTTTTTCCTGAGCGTTTGCGGTTTTGACTT", 430),
    ("TGCGACGGAAGCAGGAACTTGCTAACCACAAAACCC", 1350),
    ("GACTTCCTGTTGAAGATTGGCCTCTGCGGTACCACG", 951),
]

---

Biological target: RUNX1 (UniProt Q01196)
Sequence (Q01196 whole entry): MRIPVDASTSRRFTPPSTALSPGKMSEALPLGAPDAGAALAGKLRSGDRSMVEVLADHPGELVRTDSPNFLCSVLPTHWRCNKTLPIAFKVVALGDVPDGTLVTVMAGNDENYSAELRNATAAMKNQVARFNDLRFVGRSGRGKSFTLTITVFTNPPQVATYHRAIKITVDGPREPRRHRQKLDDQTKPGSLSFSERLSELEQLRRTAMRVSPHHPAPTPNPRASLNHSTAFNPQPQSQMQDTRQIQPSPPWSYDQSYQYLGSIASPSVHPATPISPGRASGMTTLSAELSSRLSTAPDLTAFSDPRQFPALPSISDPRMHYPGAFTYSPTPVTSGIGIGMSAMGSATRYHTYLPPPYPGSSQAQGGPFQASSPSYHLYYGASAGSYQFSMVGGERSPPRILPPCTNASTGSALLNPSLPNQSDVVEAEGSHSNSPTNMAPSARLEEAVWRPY
Test: RUNX1 binding intensity (PBM fluorescence) in presence of ETS1, normalised to RUNX1-only experiment (arbitrary fluorescence units); higher = stronger binding
Settings: RUNX1 concentration 2 nM; ETS1 concentration 25 nM
Tag: true if measured RUNX1 binding intensity is not below 2000, false if it is.

# sequence string, category label
measured = [
    ("GCGGGCAGGATCTTCCTGTGGTTTGCCTTGCCCACT", "true"),
    ("CTCAGCTCCGCGGAAGTTGCGGTAAGTGGAGCTTTG", "true"),
    ("GGGGCAGCTTCCGGCAGGAGAGCCCGCATTCCCGGC", "true"),
    ("GGCTTTCCGTTCAAGGATCTTTTTGCGGTCTTTGTC", "true"),
    ("ACCACACTTCCCAGGAGTCTCTGCGGCCGCGCGGAG", "false"),
    ("ACTGAAAACAGCACAGGATGTGGTCTGCCAGGTGCC", "false"),
    ("ACTATTTTTAGACTTCCCCACCCCGCAGTTTCAAGG", "false"),
    ("TGAAGTACTAGTCAAGGATGTGGTTTTACATAGCAG", "false"),
    ("GAAGTGAGGTCAGGATGTGGTGGGTGACCCCTGAAA", "false"),
    ("AACAAACCGGATGGGGTTGCCACCCGCAATCTTGTC", "true"),
    ("GAGTACAGGAAATGCAAAGTAAAACCACAGTGAGAT", "false"),
    ("CAACGGCGTAGCCGGAAGTCAGTGGTTTTCGCCCCA", "false"),
]

---

Biological target: RUNX1 (UniProt Q01196)
Test: RUNX1 binding intensity (PBM fluorescence) in presence of ETS1, normalised to RUNX1-only experiment (arbitrary fluorescence units); higher = stronger binding
Details: RUNX1 concentration 2 nM; ETS1 concentration 25 nM

# sequence string, tested system, RUNX1 binding intensity
data = [
    ("AGGACACAGACAGGAAACCCGCAGGCTTTGTTTTTT", "RUNX1 (UniProt Q01196)", 1470),
    ("GAAGCGGAAGTCGCTGAGGGGTGGTGAAGCGGTTGG", "RUNX1 (UniProt Q01196)", 1010),
    ("CACCCGCCCCCCGGAAGTGCCGGTGGTTGGGCTCCG", "RUNX1 (UniProt Q01196)", 1540),
    ("GTCGTCCCGGAAACCGGGATGCGGTTATCAGAGCGA", "RUNX1 (UniProt Q01196)", 3180),
    ("CGGTGGCTTCCGGCCCATGGCGGTGGTTGGTGACTC", "RUNX1 (UniProt Q01196)", 1840),
    ("CAGTGGCAGGAAGAGGTCAGAAACCACTCGTGGTGG", "RUNX1 (UniProt Q01196)", 1100),
    ("TGAGAAAGCTATTTCCGCCCACAAAGAGGCAAGTCT", "RUNX1 (UniProt Q01196)", 1570),
    ("GGAATTTCTTTTTCCGGTCCCGCAGGGTCAGCTGAG", "RUNX1 (UniProt Q01196)", 1750),
    ("GCACACCGGAACTCACACCTGAAACCACAGAACCAA", "RUNX1 (UniProt Q01196)", 5220),
    ("CGGGACACAGGAAGCCGTTGTGGGGCCCCGGGGCCA", "RUNX1 (UniProt Q01196)", 982),
    ("TCCCTAAGTCACATCCTGTGGGCAAAGGCCCTAGCA", "RUNX1 (UniProt Q01196)", 1570),
    ("GTCCCCTGAATTTTCCTGTGGTTCTTATCACCAGGT", "RUNX1 (UniProt Q01196)", 1360),
    ("GCCTCCTCCCATTTCCTCCATGTGGTCAATCCAGTT", "RUNX1 (UniProt Q01196)", 3860),
    ("CCTGCCTGACCGGAAGTGCCCGCAACCCCACCGACC", "RUNX1 (UniProt Q01196)", 2870),
    ("CCCAGCCCTGCTGCCGGATGTGGTGAGGCCCAGGTG", "RUNX1 (UniProt Q01196)", 5400),
    ("AGCTCCACCGGAAACGGCCTGGCCGCAGCCAATCAG", "RUNX1 (UniProt Q01196)", 2450),
    ("CCCCGCGGAACTCTGGCACAGTCAGCTGACCGCAGA", "RUNX1 (UniProt Q01196)", 1440),
    ("GCTCAAGTACCGGAAAGGCCCGCAGAAAGAAGGGCA", "RUNX1 (UniProt Q01196)", 1060),
    ("AATCGCGCAGTTCCGCAGCTGCCGCCCCACAACCGT", "RUNX1 (UniProt Q01196)", 960),
    ("CCGGTCCTGACCGGAAGCGGTAACCGTCACTCCTTC", "RUNX1 (UniProt Q01196)", 7940),
    ("CCTCCGGAACGGCGCGGGGGATTGTGGGGTGTAGGG", "RUNX1 (UniProt Q01196)", 761),
    ("GCCCCTAAACCGGATGCGGCAGCCACCGCGGACCCC", "RUNX1 (UniProt Q01196)", 3550),
    ("GTTAGAGGAAGAGGAAGCGGTCAAGAGATCGTCACA", "RUNX1 (UniProt Q01196)", 1810),
    ("GAAATCCATCACGGATGTGGGCTTTTTGCTCTCATT", "RUNX1 (UniProt Q01196)", 1010),
    ("ACCACGAGCCCAGGATGCGGTTTATGCGCTGTCGGG", "RUNX1 (UniProt Q01196)", 4230),
]

---

Molecular target: ETS1 (UniProt P14921)
Sequence: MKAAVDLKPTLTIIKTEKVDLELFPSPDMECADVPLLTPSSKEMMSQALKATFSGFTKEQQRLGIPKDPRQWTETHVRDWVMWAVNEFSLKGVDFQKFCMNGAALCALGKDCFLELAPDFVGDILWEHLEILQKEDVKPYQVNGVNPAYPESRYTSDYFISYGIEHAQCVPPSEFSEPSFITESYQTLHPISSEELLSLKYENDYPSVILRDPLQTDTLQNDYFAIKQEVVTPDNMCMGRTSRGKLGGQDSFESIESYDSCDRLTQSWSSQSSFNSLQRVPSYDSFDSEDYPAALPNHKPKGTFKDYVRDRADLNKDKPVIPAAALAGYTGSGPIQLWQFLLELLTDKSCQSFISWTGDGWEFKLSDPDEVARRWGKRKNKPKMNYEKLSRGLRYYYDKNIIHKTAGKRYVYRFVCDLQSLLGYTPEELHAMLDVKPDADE
Experiment: ETS1 binding intensity (PBM fluorescence), ETS1 alone (arbitrary fluorescence units); higher = stronger binding
Conditions: ETS1 concentration 1 nM; RUNX1 concentration 0 nM
Entries and their ETS1 binding intensity
experimental readout: ETS1 binding intensity

# sequence string, result
records = [
    ("ATCAAAGAACGGATATTGCTGTGACACCGCGGGGAC", 1380),
    ("AGCCGTTTCCGGCGCTCTACCCCGCCGCAGGCCGAG", 833),
    ("TCTCTTCCGTTCTCTGGTAGCTTTGTGGTAGCTTTG", 369),
    ("CCCTGACTTTTACGGAAATAGCGGTCCAAAAGCGCC", 986),
    ("CCCGGACCGTTTCCGTGCTGTGGTCCCGGGTTCTGG", 443),
    ("GCCACAGCCGGAAGCAGGCTGACCACAAGTGCTAAG", 1880),
    ("CCCAGGGCAGGAAGGGCCAAACCGCTACTGCCACTG", 882),
    ("AGGCGCCGGAAAAACTACATCTCCCACAATCCTCGG", 484),
    ("CTAACCCTTCTCTTCCTGCAAAAACCACAACAAAGG", 640),
    ("GCACCATCTCCCGACTTCCGCGGTGTCCCAGGTCCT", 559),
    ("TGCACTCCACTTCCCCTCGCCCGCAGTGAGCAGTCA", 426),
    ("AACAAACCGGATGGGGTTCCCACCCGCAATCTTGTC", 1700),
    ("TGCAGCCGCCGCGTCCGGTCCAGCCGCAGGGCCATG", 536),
    ("GATATGGCAGGAAGTAGGGCCTGGAAACCGCACGGC", 3390),
    ("CAGTCTCCTTCCGCGTCACCTCTGTGACCGCTGTGC", 414),
    ("CCTCCCACCTTGGCAGGAAGCGGTTTATCAGATTAA", 4250),
    ("TGGCGGGAGAACTTCCCCCTGTGCGGTCGCGACGTG", 444),
    ("TCCCCACACTTCCGGCCCCGCCCGCACAGCCGCACC", 3270),
    ("TCCTCCATGCAGGAAAACCTCTGTGGTCTGGGAGCT", 438),
    ("CAGATCTGAAAGGGAAGTGGTTTCAAGAGGGTTCTT", 967),
    ("ACCCCAAGCCCAGGATGTGGTTTGGCCACTATTGAG", 727),
    ("CCCGCTCACGCCGGAAGTGGTTTGCGTTTTCAAGAT", 14400),
    ("TTGGTCAGGATGTGGCTGAAGAAGCCACAAGAAAAA", 796),
    ("TCCCGGGGAGGAAGTGGCGAGAATGCGGGGGTGGGC", 1340),
    ("CTAAGCAGAGGCCGGAAGCGGTGGTTTTTAGCGGCT", 10200),
]
